Tested on: TNF-α
ASSAY_OVERVIEW: Cytokine inhibitory activity in cells: LPS-induced TNF-α in RAW 264.7
Format: cell-based, murine
APPLIED_CONDITIONS: Mus musculus, RAW264.7; RAW 264.7, LPS 1 μg/mL; test conc. 100 μM; read-out: TNF-α Inhibition Rate (%)
# inhibition at 100 µM per entry

>  <MOLECULE>
COc1nc(-c2ccccc2)cc2c1C(=O)OCC2

>  <UNITS>
%

>  <inhibition at 100 µM>
94

$$$$
>  <MOLECULE>
Cc1cc2c(cn1)C(=O)OCC2

>  <UNITS>
%

>  <inhibition at 100 µM>
36

$$$$
>  <MOLECULE>
Cc1ncc2c(c1-c1ccccc1)CCOC2=O

>  <UNITS>
%

>  <inhibition at 100 µM>
89

$$$$
>  <MOLECULE>
Cc1nc(-c2ccccc2)cc2c1C(=O)OCC2

>  <UNITS>
%

>  <inhibition at 100 µM>
89

$$$$
>  <MOLECULE>
Cc1cc2c(c(N)n1)C(=O)OCC2

>  <UNITS>
%

>  <inhibition at 100 µM>
100

$$$$
>  <MOLECULE>
Cc1cc2c(c(N3CCOCC3)n1)C(=O)OCC2

>  <UNITS>
%

>  <inhibition at 100 µM>
18

$$$$
>  <MOLECULE>
Cc1cc2c(c(-c3ccccn3)n1)C(=O)OCC2

>  <UNITS>
%

>  <inhibition at 100 µM>
18

$$$$
>  <MOLECULE>
Cc1cc2c(c(-c3cccs3)n1)C(=O)OCC2

>  <UNITS>
%

>  <inhibition at 100 µM>
37

$$$$
>  <MOLECULE>
Cc1cc2c(c(-c3ccc(Cl)cc3)n1)C(=O)OCC2

>  <UNITS>
%

>  <inhibition at 100 µM>
100

$$$$
>  <MOLECULE>
COc1nc(C)cc2c1C(=O)OCC2

>  <UNITS>
%

>  <inhibition at 100 µM>
17

$$$$
>  <MOLECULE>
Cc1nc(Cl)cc2c1C(=O)OCC2

>  <UNITS>
%

>  <inhibition at 100 µM>
56

$$$$
>  <MOLECULE>
Cc1cc2c(c(Nc3ccc(Cl)cc3)n1)C(=O)OCC2

>  <UNITS>
%

>  <inhibition at 100 µM>
78

$$$$
>  <MOLECULE>
O=C1OC(c2ccccc2)Cc2ccncc21 (stereo not drawn) [Ex. 120a]

>  <UNITS>
%

>  <inhibition at 100 µM>
66

$$$$
>  <MOLECULE>
Cc1cc2c(c(C)n1)C(=O)OCC2

>  <UNITS>
%

>  <inhibition at 100 µM>
17

$$$$
>  <MOLECULE>
Cc1nc(-c2ccco2)cc2c1C(=O)OCC2

>  <UNITS>
%

>  <inhibition at 100 µM>
72

$$$$
>  <MOLECULE>
O=C1OCCc2ccncc21 [Ex. 3, 3,4-dihydro-pyrano[3,4-c]pyridine-1-on]

>  <UNITS>
%

>  <inhibition at 100 µM>
43

$$$$
>  <MOLECULE>
Cc1cc2c(c(Nc3ccc(F)cc3)n1)C(=O)OCC2

>  <UNITS>
%

>  <inhibition at 100 µM>
26

$$$$
>  <MOLECULE>
O=C1OCCc2cc(-c3ccccc3)nc(Cl)c21

>  <UNITS>
%

>  <inhibition at 100 µM>
72

$$$$
>  <MOLECULE>
Cc1cc2c(c(N3CCN(C)CC3)n1)C(=O)OCC2

>  <UNITS>
%

>  <inhibition at 100 µM>
70

$$$$
>  <MOLECULE>
Cc1cc2c(c(-c3ccc(F)cc3)n1)C(=O)OCC2

>  <UNITS>
%

>  <inhibition at 100 µM>
100

$$$$
>  <MOLECULE>
Cc1cc2c(c(-c3ccccc3)n1)C(=O)OCC2

>  <UNITS>
%

>  <inhibition at 100 µM>
19

$$$$
>  <MOLECULE>
O=C1OCCc2c1cnc1ccccc21

>  <UNITS>
%

>  <inhibition at 100 µM>
33

$$$$
>  <MOLECULE>
Cc1nc(O)c2c(c1-c1ccccc1)CCOC2=O

>  <UNITS>
%

>  <inhibition at 100 µM>
56

$$$$
>  <MOLECULE>
O=C1CCC(N2C(=O)c3ccccc3C2=O)C(=O)N1 (stereo not drawn) [Thalidomide, reference compound]

>  <UNITS>
%

>  <inhibition at 100 µM>
20

$$$$
>  <MOLECULE>
Cc1cc2c(c(NCc3ccccc3)n1)C(=O)OCC2

>  <UNITS>
%

>  <inhibition at 100 µM>
21

$$$$
>  <MOLECULE>
C=Cc1cncc2c1CCOC2=O

>  <UNITS>
%

>  <inhibition at 100 µM>
39

$$$$
>  <MOLECULE>
S=C1OCCc2ccncc21

>  <UNITS>
%

>  <inhibition at 100 µM>
28

$$$$
>  <MOLECULE>
Cc1nc(Cl)c2c(c1-c1ccccc1)CCOC2=O

>  <UNITS>
%

>  <inhibition at 100 µM>
100

$$$$
>  <MOLECULE>
O=C1OCCc2cc(-c3ccccc3)ncc21

>  <UNITS>
%

>  <inhibition at 100 µM>
65

$$$$
>  <MOLECULE>
Cc1nc(-c2cccs2)cc2c1C(=O)OCC2

>  <UNITS>
%

>  <inhibition at 100 µM>
93

$$$$
>  <MOLECULE>
Cc1nc(-c2ccc(N(C)C)cc2)cc2c1C(=O)OCC2

>  <UNITS>
%

>  <inhibition at 100 µM>
18

$$$$
>  <MOLECULE>
Cc1cc2c(c(Cl)n1)C(=O)OCC2

>  <UNITS>
%

>  <inhibition at 100 µM>
31

$$$$
>  <MOLECULE>
Cc1cc2c(c(N3CCCCC3)n1)C(=O)OCC2

>  <UNITS>
%

>  <inhibition at 100 µM>
89

$$$$
>  <MOLECULE>
Cc1ccc(Nc2nc(C)cc3c2C(=O)OCC3)cc1

>  <UNITS>
%

>  <inhibition at 100 µM>
31

$$$$
>  <MOLECULE>
Cc1cc2c(c(-c3ccco3)n1)C(=O)OCC2

>  <UNITS>
%

>  <inhibition at 100 µM>
68

$$$$
>  <MOLECULE>
Cc1cc2c(c(Oc3ccccc3)n1)C(=O)OCC2

>  <UNITS>
%

>  <inhibition at 100 µM>
19

$$$$
